- assayed.target: T1, IL-1beta (UniProt P01584 117-269)
- T1 construct: also called IL-1β
- assay.notes: Biacore
recorded.metric: binding result

INSERT INTO assay_data (binder, recorded_metric, observed) VALUES
  ('XPA23 Fab, heavy chain G100K (Fab, V domains shown) VH: EVQLLESGGGLVQPGGSLRLSCAASGFTFSKYFMFWVRQAPGKGLEWVSVISPSGGMTRYADSVKGRFTISRDNSKNTLYLQMNSLRAEDTAVYYCARVKYGGNSDYWGQGTLVTVSS VL: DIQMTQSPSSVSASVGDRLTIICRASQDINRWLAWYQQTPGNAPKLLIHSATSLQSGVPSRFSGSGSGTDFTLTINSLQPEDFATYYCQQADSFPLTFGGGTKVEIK', 'binding result', 'no binding'),
  ('XPA23 Fab, heavy chain F35E (Fab, V domains shown) VH: EVQLLESGGGLVQPGGSLRLSCAASGFTFSKYFMEWVRQAPGKGLEWVSVISPSGGMTRYADSVKGRFTISRDNSKNTLYLQMNSLRAEDTAVYYCARVGYGGNSDYWGQGTLVTVSS VL: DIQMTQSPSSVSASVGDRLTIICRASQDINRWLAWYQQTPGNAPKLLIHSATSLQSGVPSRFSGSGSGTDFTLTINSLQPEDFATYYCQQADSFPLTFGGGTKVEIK', 'binding result', 'no binding'),
  ('XPA23 Fab, heavy chain V50D (Fab, V domains shown) VH: EVQLLESGGGLVQPGGSLRLSCAASGFTFSKYFMFWVRQAPGKGLEWVSDISPSGGMTRYADSVKGRFTISRDNSKNTLYLQMNSLRAEDTAVYYCARVGYGGNSDYWGQGTLVTVSS VL: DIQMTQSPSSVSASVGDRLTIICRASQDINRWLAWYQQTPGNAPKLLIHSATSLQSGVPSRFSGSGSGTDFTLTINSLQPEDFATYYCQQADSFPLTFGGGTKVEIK', 'binding result', 'no binding');
